- assayed_target: T1, IL10Rα and IL2Rγ on human primary cells (CD8 T cells, CD4 T cells, monocytes) (human) (UniProt Q13651)
- T1 sequence (looked up) 1: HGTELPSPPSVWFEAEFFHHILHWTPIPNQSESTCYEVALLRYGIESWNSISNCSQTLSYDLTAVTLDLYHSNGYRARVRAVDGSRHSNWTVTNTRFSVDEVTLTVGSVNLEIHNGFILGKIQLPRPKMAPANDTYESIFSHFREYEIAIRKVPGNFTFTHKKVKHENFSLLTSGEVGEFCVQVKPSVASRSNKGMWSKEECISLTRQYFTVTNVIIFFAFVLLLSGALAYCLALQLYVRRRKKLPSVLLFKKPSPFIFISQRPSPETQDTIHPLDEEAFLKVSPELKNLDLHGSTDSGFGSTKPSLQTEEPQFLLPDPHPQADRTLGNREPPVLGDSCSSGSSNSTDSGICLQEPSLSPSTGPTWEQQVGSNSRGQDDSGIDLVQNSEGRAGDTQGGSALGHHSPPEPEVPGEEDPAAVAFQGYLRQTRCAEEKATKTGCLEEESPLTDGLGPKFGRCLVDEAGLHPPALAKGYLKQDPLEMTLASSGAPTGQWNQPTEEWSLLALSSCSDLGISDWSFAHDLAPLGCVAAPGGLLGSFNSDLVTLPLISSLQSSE
- T1 sequence (looked up) 2: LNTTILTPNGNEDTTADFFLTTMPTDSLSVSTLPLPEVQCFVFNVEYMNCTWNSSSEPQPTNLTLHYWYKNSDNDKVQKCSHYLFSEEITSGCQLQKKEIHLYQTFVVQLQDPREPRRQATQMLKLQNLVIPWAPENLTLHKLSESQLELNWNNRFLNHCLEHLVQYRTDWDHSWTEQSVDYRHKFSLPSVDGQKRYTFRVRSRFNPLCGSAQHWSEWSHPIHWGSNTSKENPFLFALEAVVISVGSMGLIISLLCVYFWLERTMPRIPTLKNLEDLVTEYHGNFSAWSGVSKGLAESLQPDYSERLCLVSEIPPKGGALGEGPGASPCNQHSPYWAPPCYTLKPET
- protocol_summary: cell-based or functional assay
readout_type: pSTAT3 (MFI) in CD4 T cells at 0.0001 µM
Enter your answer as a number in MFI; do not include the unit.

| binder | readout_type | observed_measurement |
| --- | --- | --- |
| hIL10Ra_VHH14-hIL2Rg_VHH19, no linker, tag his (bispecific antibody, not shown: small tags and cut ends) QVQLQESGGGSVQAGGSLRLSCGASGYTYSSYCMGWFRQVPGKEREGVAVIDSDGSTSYADSVKGRFTISKDNGKNTLYLQMNSLKPEDTAMYYCAADLGHYRPPCGVLYLGMDYWGKGTQVTVSSQVQLQESGGGSVQAGGSLRLSCTASGFTFDDREMNWYRQAPGNECELVSTISSDGSTYYADSVKGRFTISQDNAKNTVYLQMDSVKPEDTAVYYCAADFMIAIQAPGAGCWGQGTQVTVSS | pSTAT3 (MFI) in CD4 T cells at 0.0001 µM | 12200 |
| hIL10Ra_VHH14-hIL2Rg_VHH19, linker GGSGGS, tag his (bispecific antibody, not shown: small tags and cut ends) QVQLQESGGGSVQAGGSLRLSCGASGYTYSSYCMGWFRQVPGKEREGVAVIDSDGSTSYADSVKGRFTISKDNGKNTLYLQMNSLKPEDTAMYYCAADLGHYRPPCGVLYLGMDYWGKGTQVTVSSGGSGGSQVQLQESGGGSVQAGGSLRLSCTASGFTFDDREMNWYRQAPGNECELVSTISSDGSTYYADSVKGRFTISQDNAKNTVYLQMDSVKPEDTAVYYCAADFMIAIQAPGAGCWGQGTQVTVSS | pSTAT3 (MFI) in CD4 T cells at 0.0001 µM | 13200 |

GET /values?readout=pSTAT3 (MFI) in CD4 T cells at 0.0001 µM&item= hIL10Ra_VHH14-hIL2Rg_VHH19, linker GGGSGGGS, tag his (bispecific antibody, not shown: small tags and cut ends) QVQLQESGGGSVQAGGSLRLSCGASGYTYSSYCMGWFRQVPGKEREGVAVIDSDGSTSYADSVKGRFTISKDNGKNTLYLQMNSLKPEDTAMYYCAADLGHYRPPCGVLYLGMDYWGKGTQVTVSSGGGSGGGSQVQLQESGGGSVQAGGSLRLSCTASGFTFDDREMNWYRQAPGNECELVSTISSDGSTYYADSVKGRFTISQDNAKNTVYLQMDSVKPEDTAVYYCAADFMIAIQAPGAGCWGQGTQVTVSS
10700
